biological target: HLA-A*24 (human); assay: UV-ligand exchange ELISA
property: peptide exchange yield

binder="YYVESGKLF [peptide SEQ ID No 166]" property="peptide exchange yield" reported_result="> 75%"
binder="VYRDETGELF [peptide SEQ ID No 226]" property="peptide exchange yield" reported_result="50 to 75%"
binder="PYRLIFEKF [peptide SEQ ID No 281]" property="peptide exchange yield" reported_result="20 to 49%"
binder="RFHPTPLLL [peptide SEQ ID No 193]" property="peptide exchange yield" reported_result="> 75%"
